test system: Staphylococcus aureus; assay: Antimicrobial activity against Staphylococcus aureus ATCC 13709 after 20 to 24 hrs; format: functional
MEASURED QUANTITY: MIC (µg/mL)
Numbers only; they are read as µg/mL.

Exam item: Provide value of MIC for this record tested with Staphylococcus aureus: "NC[C@@H]1O[C@H](O[C@H]2[C@@H](OCCNCCc3ccc4ccccc4c3)[C@H](O[C@@H]3[C@@H](O)[C@H](N)C[C@H](N)[C@H]3O[C@H]3O[C@H](CO)[C@@H](O)[C@H](O)[C@H]3N)O[C@@H]2CO)[C@H](N)[C@@H](O)[C@@H]1O"
Marked response: 1

Exam item: Provide value of MIC for this record tested with Staphylococcus aureus: NC[C@@H]1O[C@H](O[C@H]2[C@@H](OCCNC3C4CC5CC3CC(C4)C5O)[C@H](O[C@@H]3[C@@H](O)[C@H](N)C[C@H](N)[C@H]3O[C@H]3O[C@H](CO)[C@@H](O)[C@H](O)[C@H]3N)O[C@@H]2CO)[C@H](N)[C@@H](O)[C@@H]1O (stereo partly drawn)
Marked response: 1
